Where do these numbers come from? They come from ChEMBL document CHEMBL3600363.

Measured pIC50 of individual entries
TARGET_DESC: Phosphatidylinositol 4,5-bisphosphate 3-kinase catalytic subunit alpha isoform (Homo sapiens)
MEASUREMENT_PROTOCOL: Inhibition of PI3Kalpha (unknown origin) pre-incubated for 20 mins before phosphatidylinositol 4, 5-bisphosphate substrate addition by kinase-glo plus luminescence assay
Convention used: pIC50 is expressed as -log10 of the molar concentration.

Known results for compounds:
smiles_repr=Nc1nc2ccc(-c3ccccn3)cc2s1 value_type=pIC50 test_result=5.00
smiles_repr=Cc1ccc(-c2ccc3nc(N)sc3c2)cn1 value_type=pIC50 test_result=6.00
smiles_repr=Nc1nc2ccc(-c3cnn(CC4CC4)c3)cc2s1 value_type=pIC50 test_result=4.90
smiles_repr=Nc1nc2ccc(-c3ccn(CC4CC4)c(=O)c3)cc2s1 value_type=pIC50 test_result=5.20
smiles_repr=Nc1nc2ccc(-c3ccc(C(F)(F)F)nc3)cc2s1 value_type=pIC50 test_result=5.70
smiles_repr=CCSc1ccc(-c2ccc3nc(N)sc3c2)cn1 value_type=pIC50 test_result=5.90
smiles_repr=Cn1ccc(-c2ccc3nc(N)sc3c2)cc1=O value_type=pIC50 test_result=5.60
smiles_repr=Nc1nc2ccc(-c3cnn(C4CC4)c3)cc2s1 value_type=pIC50 test_result=5.00
smiles_repr=CNC(=O)c1ccc(-c2ccc3nc(N)sc3c2)cn1 value_type=pIC50 test_result=5.70
smiles_repr=CN(C)C(=O)c1ccc(-c2ccc3nc(N)sc3c2)cn1 value_type=pIC50 test_result=4.40

// next entry
Exam item: Kindly indicate its recorded pIC50. Item: CCCn1cc(-c2ccc3nc(N)sc3c2)cn1
Marked response: 4.90

====

TARGET_DESC: Phosphatidylinositol 4,5-bisphosphate 3-kinase catalytic subunit beta isoform (Homo sapiens)
Sequence (P42338 whole entry, canonical isoform): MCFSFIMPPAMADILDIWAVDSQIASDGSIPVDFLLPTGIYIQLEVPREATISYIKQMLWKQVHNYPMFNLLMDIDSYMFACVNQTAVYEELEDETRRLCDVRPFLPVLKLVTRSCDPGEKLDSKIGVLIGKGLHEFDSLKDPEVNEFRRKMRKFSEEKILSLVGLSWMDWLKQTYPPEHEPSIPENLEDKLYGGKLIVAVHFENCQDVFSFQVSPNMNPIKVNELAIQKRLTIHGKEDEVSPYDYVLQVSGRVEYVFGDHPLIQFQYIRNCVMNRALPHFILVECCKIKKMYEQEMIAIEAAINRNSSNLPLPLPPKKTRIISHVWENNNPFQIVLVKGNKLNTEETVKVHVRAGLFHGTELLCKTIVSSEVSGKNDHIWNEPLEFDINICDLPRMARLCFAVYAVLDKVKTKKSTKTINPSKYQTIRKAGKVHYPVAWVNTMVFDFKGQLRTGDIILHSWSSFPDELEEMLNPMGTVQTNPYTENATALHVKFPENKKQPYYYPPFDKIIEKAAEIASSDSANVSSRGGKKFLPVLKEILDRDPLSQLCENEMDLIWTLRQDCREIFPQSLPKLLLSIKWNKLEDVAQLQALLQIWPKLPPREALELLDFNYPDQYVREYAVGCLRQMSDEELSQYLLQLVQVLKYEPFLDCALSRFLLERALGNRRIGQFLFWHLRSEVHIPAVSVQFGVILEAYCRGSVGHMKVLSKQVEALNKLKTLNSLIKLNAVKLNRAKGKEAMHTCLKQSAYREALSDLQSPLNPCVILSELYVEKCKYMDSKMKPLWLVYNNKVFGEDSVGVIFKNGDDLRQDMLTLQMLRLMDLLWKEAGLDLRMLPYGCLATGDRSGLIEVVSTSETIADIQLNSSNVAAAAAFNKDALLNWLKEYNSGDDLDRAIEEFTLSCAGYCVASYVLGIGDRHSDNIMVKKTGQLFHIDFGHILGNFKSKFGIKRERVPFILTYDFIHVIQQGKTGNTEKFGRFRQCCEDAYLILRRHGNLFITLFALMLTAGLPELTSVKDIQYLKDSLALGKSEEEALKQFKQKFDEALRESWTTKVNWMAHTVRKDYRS
MEASUREMENT_PROTOCOL: Inhibition of PI3Kbeta (unknown origin) pre-incubated for 20 mins before phosphatidylinositol 4, 5-bisphosphate substrate addition by kinase-glo plus luminescence assay
Measured IC50 of individual entries

Known results for molecules:
smiles_repr=Cn1cc(-c2ccc3nc(N)sc3c2)cn1 test_result="15.8 µM"
smiles_repr=CCn1ccc(-c2ccc3nc(N)sc3c2)cc1=O test_result="50.1 µM"
smiles_repr=CNCc1ccc(-c2ccc3nc(N)sc3c2)cn1 test_result="79.4 µM"
smiles_repr=Nc1nc2ccc(-c3ccn(CC4CC4)c(=O)c3)cc2s1 test_result="> 126 µM"

// next entry
Exam item: Kindly indicate its recorded IC50. Item: COCc1ccc(-c2ccc3nc(N)sc3c2)cn1
Marked response: 15.8 µM

====

TARGET_DESC: Phosphatidylinositol 4-kinase alpha (Homo sapiens, UniProt P42356)
Sequence (P42356 whole entry): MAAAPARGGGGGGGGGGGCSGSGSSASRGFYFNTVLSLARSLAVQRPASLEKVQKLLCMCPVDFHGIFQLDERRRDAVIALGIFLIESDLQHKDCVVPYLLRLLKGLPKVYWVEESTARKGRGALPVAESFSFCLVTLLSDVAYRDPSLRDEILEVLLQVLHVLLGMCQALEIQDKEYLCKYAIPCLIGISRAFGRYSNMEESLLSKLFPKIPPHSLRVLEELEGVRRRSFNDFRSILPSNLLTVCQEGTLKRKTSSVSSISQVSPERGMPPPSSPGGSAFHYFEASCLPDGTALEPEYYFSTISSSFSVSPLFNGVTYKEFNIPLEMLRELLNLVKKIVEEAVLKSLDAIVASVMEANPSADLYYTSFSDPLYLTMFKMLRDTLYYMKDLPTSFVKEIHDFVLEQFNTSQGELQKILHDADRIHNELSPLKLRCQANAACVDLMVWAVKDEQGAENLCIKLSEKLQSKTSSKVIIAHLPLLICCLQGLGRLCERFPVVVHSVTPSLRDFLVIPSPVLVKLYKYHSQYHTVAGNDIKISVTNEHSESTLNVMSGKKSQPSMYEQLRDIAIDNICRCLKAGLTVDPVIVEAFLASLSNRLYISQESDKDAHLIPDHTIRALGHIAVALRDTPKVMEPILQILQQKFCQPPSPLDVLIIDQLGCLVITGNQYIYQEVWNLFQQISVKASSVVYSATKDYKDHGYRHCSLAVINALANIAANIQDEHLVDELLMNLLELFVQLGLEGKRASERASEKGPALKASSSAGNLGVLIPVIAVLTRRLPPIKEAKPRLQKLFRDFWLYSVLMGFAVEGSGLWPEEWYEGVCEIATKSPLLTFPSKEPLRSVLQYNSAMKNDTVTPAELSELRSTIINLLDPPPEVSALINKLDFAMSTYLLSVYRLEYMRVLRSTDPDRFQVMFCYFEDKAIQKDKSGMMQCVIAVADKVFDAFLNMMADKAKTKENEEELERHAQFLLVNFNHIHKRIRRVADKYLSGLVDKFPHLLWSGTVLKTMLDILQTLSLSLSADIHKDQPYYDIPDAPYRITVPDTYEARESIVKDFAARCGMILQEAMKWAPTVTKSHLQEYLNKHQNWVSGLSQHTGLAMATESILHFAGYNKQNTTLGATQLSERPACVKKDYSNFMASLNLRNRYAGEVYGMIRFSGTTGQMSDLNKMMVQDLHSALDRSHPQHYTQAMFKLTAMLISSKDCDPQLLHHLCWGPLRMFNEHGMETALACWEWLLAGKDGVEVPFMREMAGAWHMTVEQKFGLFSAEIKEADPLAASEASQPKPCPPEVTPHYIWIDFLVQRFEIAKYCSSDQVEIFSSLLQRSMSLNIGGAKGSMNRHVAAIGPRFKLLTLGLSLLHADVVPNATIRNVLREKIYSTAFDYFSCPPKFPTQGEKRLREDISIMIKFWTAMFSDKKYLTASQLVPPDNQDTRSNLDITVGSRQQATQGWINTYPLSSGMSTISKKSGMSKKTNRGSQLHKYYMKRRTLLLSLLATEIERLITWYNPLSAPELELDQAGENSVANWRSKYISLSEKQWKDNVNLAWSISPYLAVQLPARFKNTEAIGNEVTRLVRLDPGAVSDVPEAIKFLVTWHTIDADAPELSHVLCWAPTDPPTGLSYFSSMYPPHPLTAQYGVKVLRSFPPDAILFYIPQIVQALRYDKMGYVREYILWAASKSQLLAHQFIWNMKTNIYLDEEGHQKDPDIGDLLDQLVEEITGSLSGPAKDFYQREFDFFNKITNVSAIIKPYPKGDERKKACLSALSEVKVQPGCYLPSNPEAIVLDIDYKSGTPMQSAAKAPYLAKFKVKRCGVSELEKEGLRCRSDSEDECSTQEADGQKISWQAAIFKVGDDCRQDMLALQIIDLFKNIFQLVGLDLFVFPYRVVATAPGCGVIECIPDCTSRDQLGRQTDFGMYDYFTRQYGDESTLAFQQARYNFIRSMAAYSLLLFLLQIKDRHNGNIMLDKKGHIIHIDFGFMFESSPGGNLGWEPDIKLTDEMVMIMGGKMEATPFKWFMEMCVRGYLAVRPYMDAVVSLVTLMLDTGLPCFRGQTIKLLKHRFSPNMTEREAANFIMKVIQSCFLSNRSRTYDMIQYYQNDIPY
MEASUREMENT_PROTOCOL: Inhibition of N-terminal FLAG-tagged human full length recombinant PI4K3alpha using D-myo-phosphatidylinositol substrate and ATP incubated for 45 mins by ADP-Glo kinase Assay
Could you mark each record Yes if its IC50 falls strictly under 3 µM, and No if it equals or exceeds it?

smiles_repr=Nc1nc2ccc(-c3ccncc3)cc2s1 class=Yes
smiles_repr=Nc1nc2ccc(-c3ncccn3)cc2s1 class=No
smiles_repr=CCN(C)c1ccc(-c2ccc3nc(N)sc3c2)cn1 class=Yes

Exam item: Dear colleague, could you confirm whether IC50 of Nc1nc2ccc(-c3cnn(Cc4ccccc4)c3)cc2s1 falls below 3 µM? Thanks.
Marked response: Yes

Exam item: Dear colleague, could you confirm whether IC50 of Nc1nc2ccc(-c3cnn(CC4CC4)c3)cc2s1 falls below 3 µM? Thanks.
Marked response: Yes

Exam item: Dear colleague, could you confirm whether IC50 of CNC(=O)c1ccc(-c2ccc3nc(N)sc3c2)cn1 falls below 3 µM? Thanks.
Marked response: No

Exam item: Dear colleague, could you confirm whether IC50 of CCn1cc(-c2ccc3nc(N)sc3c2)cn1 falls below 3 µM? Thanks.
Marked response: No

Exam item: Dear colleague, could you confirm whether IC50 of Nc1nc2ccc(-c3cnn(C4CC4)c3)cc2s1 falls below 3 µM? Thanks.
Marked response: No

====

TARGET_DESC: Phosphatidylinositol 4,5-bisphosphate 3-kinase catalytic subunit gamma isoform (Homo sapiens)
MEASUREMENT_PROTOCOL: Inhibition of PI3Kgamma (unknown origin) pre-incubated for 20 mins before phosphatidylinositol 4, 5-bisphosphate substrate addition by kinase-glo plus luminescence assay
Could you mark each record 1 if its IC50 falls strictly under 4 µM, and 0 if it equals or exceeds it?

Exam item: Dear colleague, could you confirm whether IC50 of CC(C)Oc1ccc(-c2ccc3nc(N)sc3c2)cn1 falls below 4 µM? Thanks.
Marked response: 0

Exam item: Dear colleague, could you confirm whether IC50 of O=c1cc(-c2ccc3nc(NC[C@H]4CC[C@H](C(=O)O)CC4)sc3c2)ccn1CC1CC1 falls below 4 µM? Thanks.
Marked response: 0

Exam item: Dear colleague, could you confirm whether IC50 of Nc1nc2ccc(-c3cc[nH]c(=O)c3)cc2s1 falls below 4 µM? Thanks.
Marked response: 1

Exam item: Dear colleague, could you confirm whether IC50 of Nc1nc2ccc(-c3ccc(=O)[nH]c3)cc2s1 falls below 4 µM? Thanks.
Marked response: 0

Exam item: Dear colleague, could you confirm whether IC50 of Nc1nc2ccc(-c3ccc(OCCO)nc3)cc2s1 falls below 4 µM? Thanks.
Marked response: 1

Exam item: Dear colleague, could you confirm whether IC50 of CCSc1ccc(-c2ccc3nc(N)sc3c2)cn1 falls below 4 µM? Thanks.
Marked response: 1

Exam item: Dear colleague, could you confirm whether IC50 of Nc1nc2ccc(-c3cnn(C4CC4)c3)cc2s1 falls below 4 µM? Thanks.
Marked response: 1

Exam item: Dear colleague, could you confirm whether IC50 of Nc1nc2ccc(-c3ccccn3)cc2s1 falls below 4 µM? Thanks.
Marked response: 0

Exam item: Dear colleague, could you confirm whether IC50 of COc1ccc(-c2ccc3nc(N)sc3c2)cn1 falls below 4 µM? Thanks.
Marked response: 1

====

TARGET_DESC: Phosphatidylinositol 4,5-bisphosphate 3-kinase catalytic subunit alpha isoform (Homo sapiens, UniProt P42336)
Sequence (P42336 whole entry, canonical isoform): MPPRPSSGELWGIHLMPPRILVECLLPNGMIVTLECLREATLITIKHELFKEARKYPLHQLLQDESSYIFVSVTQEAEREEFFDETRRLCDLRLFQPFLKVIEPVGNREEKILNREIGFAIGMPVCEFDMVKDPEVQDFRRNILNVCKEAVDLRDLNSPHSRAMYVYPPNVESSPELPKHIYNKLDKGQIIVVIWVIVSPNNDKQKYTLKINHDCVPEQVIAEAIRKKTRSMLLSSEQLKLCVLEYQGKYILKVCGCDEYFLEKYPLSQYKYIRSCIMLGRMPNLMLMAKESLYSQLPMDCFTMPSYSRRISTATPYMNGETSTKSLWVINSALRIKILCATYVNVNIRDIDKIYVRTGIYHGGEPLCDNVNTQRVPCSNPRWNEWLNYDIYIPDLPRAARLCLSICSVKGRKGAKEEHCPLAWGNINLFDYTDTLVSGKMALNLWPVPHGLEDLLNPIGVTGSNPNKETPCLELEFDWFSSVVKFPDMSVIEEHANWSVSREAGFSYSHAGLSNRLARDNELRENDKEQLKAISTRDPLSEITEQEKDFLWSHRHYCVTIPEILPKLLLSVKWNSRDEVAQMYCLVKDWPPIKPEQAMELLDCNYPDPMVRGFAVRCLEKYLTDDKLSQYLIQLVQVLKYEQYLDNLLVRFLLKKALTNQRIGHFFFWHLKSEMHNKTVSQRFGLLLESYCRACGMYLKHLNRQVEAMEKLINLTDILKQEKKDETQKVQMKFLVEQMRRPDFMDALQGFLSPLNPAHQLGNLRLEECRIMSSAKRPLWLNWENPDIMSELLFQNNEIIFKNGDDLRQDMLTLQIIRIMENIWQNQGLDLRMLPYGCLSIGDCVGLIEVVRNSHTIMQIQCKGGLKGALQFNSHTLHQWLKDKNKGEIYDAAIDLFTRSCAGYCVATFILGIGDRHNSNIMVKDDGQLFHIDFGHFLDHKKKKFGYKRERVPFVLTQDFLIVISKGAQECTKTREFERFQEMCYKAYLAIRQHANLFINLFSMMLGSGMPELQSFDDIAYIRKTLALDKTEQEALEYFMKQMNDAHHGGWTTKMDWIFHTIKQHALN
MEASUREMENT_PROTOCOL: Inhibition of PI3Kalpha (unknown origin) pre-incubated for 20 mins before phosphatidylinositol 4, 5-bisphosphate substrate addition by kinase-glo plus luminescence assay
Could you mark each record Yes if its IC50 falls strictly under 8 µM, and No if it equals or exceeds it?

smiles_repr=Nc1nc2ccc(-c3ccc(=O)[nH]c3)cc2s1 class=No

Exam item: Dear colleague, could you confirm whether IC50 of Nc1nc2ccc(-c3cnccn3)cc2s1 falls below 8 µM? Thanks.
Marked response: Yes

Exam item: Dear colleague, could you confirm whether IC50 of CC(C)Oc1ccc(-c2ccc3nc(N)sc3c2)cn1 falls below 8 µM? Thanks.
Marked response: Yes

Exam item: Dear colleague, could you confirm whether IC50 of Nc1nc2ccc(-c3ccc(CO)nc3)cc2s1 falls below 8 µM? Thanks.
Marked response: Yes

Exam item: Dear colleague, could you confirm whether IC50 of O=c1cc(-c2ccc3nc(NCC4CCOCC4)sc3c2)ccn1CC1CC1 falls below 8 µM? Thanks.
Marked response: No

Exam item: Dear colleague, could you confirm whether IC50 of Cn1ccc(-c2ccc3nc(N)sc3c2)n1 falls below 8 µM? Thanks.
Marked response: Yes

Exam item: Dear colleague, could you confirm whether IC50 of CS(=O)(=O)c1ccc(-c2ccc3nc(N)sc3c2)cn1 falls below 8 µM? Thanks.
Marked response: No

Exam item: Dear colleague, could you confirm whether IC50 of CC(C)n1cc(-c2ccc3nc(N)sc3c2)cn1 falls below 8 µM? Thanks.
Marked response: No

Exam item: Dear colleague, could you confirm whether IC50 of COCCOc1ccc(-c2ccc3nc(N)sc3c2)cn1 falls below 8 µM? Thanks.
Marked response: Yes

Exam item: Dear colleague, could you confirm whether IC50 of CNCc1ccc(-c2ccc3nc(N)sc3c2)cn1 falls below 8 µM? Thanks.
Marked response: No

Exam item: Dear colleague, could you confirm whether IC50 of CCNc1ccc(-c2ccc3nc(N)sc3c2)cn1 falls below 8 µM? Thanks.
Marked response: Yes

Exam item: Dear colleague, could you confirm whether IC50 of Nc1nc2ccc(-c3ccccc3)cc2s1 falls below 8 µM? Thanks.
Marked response: No

====

TARGET_DESC: Phosphatidylinositol 4-kinase beta (Homo sapiens, UniProt Q9UBF8)
Sequence (Q9UBF8 whole entry): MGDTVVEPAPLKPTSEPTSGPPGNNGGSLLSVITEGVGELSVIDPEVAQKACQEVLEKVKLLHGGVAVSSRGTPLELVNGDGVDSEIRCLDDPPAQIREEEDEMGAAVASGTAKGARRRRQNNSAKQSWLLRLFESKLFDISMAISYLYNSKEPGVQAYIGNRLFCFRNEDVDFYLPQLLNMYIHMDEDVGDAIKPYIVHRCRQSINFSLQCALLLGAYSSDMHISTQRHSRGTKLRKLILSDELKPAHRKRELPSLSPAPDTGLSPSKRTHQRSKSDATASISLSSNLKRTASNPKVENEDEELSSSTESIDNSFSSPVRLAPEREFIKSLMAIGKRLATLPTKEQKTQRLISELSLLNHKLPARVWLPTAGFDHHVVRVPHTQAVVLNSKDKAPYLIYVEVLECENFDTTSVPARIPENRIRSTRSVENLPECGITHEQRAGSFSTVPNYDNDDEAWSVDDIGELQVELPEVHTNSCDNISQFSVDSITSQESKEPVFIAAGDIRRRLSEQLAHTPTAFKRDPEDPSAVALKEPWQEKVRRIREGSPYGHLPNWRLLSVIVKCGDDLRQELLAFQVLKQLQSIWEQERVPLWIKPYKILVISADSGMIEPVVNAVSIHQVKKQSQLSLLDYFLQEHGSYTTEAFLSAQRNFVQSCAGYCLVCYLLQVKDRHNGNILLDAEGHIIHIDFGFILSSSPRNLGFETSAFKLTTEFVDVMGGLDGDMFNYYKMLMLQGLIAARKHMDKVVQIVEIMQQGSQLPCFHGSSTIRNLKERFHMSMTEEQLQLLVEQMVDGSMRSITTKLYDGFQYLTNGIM
MEASUREMENT_PROTOCOL: Inhibition of N-terminal GST-tagged human full length recombinant PI4K3beta expressed in Sf9 cells using D-myo-phosphatidylinositol substrate and ATP incubated for 45 mins by ADP-Glo kinase Assay
Could you mark each record criterion met if its IC50 falls strictly under 1 µM, and criterion not met if it equals or exceeds it?

smiles_repr=Nc1nc2ccc(-c3ccccn3)cc2s1 class="criterion not met"
smiles_repr=COCCOn1ccc(-c2ccc3nc(N)sc3c2)cc1=O class="criterion not met"
smiles_repr=Nc1nc2ccc(-c3ccccc3)cc2s1 class="criterion met"

Exam item: Dear colleague, could you confirm whether IC50 of Nc1nc2ccc(-c3cnn(Cc4ccccc4)c3)cc2s1 falls below 1 µM? Thanks.
Marked response: criterion met

====

TARGET_DESC: Phosphatidylinositol 4,5-bisphosphate 3-kinase catalytic subunit alpha isoform (Homo sapiens)
MEASUREMENT_PROTOCOL: Inhibition of PI3Kalpha (unknown origin) pre-incubated for 20 mins before phosphatidylinositol 4, 5-bisphosphate substrate addition by kinase-glo plus luminescence assay
VALUE_TYPE: pIC50
Convention used: pIC50 is expressed as -log10 of the molar concentration.

Exam item: Kindly indicate its recorded pIC50. Item: CCOc1ccc(-c2ccc3nc(N)sc3c2)cn1
Marked response: 5.80

Exam item: Kindly indicate its recorded pIC50. Item: Nc1nc2ccc(-c3ccc(OCCO)nc3)cc2s1
Marked response: 5.90

Exam item: Kindly indicate its recorded pIC50. Item: COCCOn1ccc(-c2ccc3nc(N)sc3c2)cc1=O
Marked response: 4.60

Exam item: Kindly indicate its recorded pIC50. Item: COCc1ccc(-c2ccc3nc(N)sc3c2)cn1
Marked response: 5.60

Exam item: Kindly indicate its recorded pIC50. Item: CCn1cc(-c2ccc3nc(N)sc3c2)cn1
Marked response: 4.90

Exam item: Kindly indicate its recorded pIC50. Item: Nc1nc2ccc(-c3cccnc3)cc2s1
Marked response: 5.70

Exam item: Kindly indicate its recorded pIC50. Item: CCN(C)c1ccc(-c2ccc3nc(N)sc3c2)cn1
Marked response: 5.20

Exam item: Kindly indicate its recorded pIC50. Item: Nc1nc2ccc(-c3cnn(Cc4ccccc4)c3)cc2s1
Marked response: 5.10

Exam item: Kindly indicate its recorded pIC50. Item: O=c1cc(-c2ccc3nc(NCC4CCS(=O)(=O)CC4)sc3c2)ccn1CC1CC1
Marked response: 4.10

Exam item: Kindly indicate its recorded pIC50. Item: CS(=O)(=O)c1cncc(-c2ccc3nc(N)sc3c2)c1
Marked response: 6.60

Exam item: Kindly indicate its recorded pIC50. Item: O=c1cc(-c2ccc3nc(NC[C@H]4CC[C@H](C(=O)O)CC4)sc3c2)ccn1CC1CC1
Marked response: 4.00
